Biological target: IKKβ (Homo sapiens)
Construct: purchased Upstate Biotechnology Inc. 14-485
Assay: IKKβ inhibition assay by fluorescence polarization (IMAP kit)
Assay type: biochemical
Settings: test compound at 1 μM; inhibition rate exceeding 100% is indicated as 100%
measurement name: inhibition at 1 µM (%)
Answer format: numeric, % implied, no suffix.

Use the examples below as a reference point.
{"molecule": "NC(=O)Nc1[nH]c2cc(C3SCCS3)ccc2c1C(N)=O", "target entity": "IKKβ (Homo sapiens)", "value unit": "%", "inhibition at 1 µM": 100}
{"molecule": "CC(N)c1ccc(-c2ccc3c(C(N)=O)c(NC(N)=O)[nH]c3c2)cc1 (stereo not drawn)", "target entity": "IKKβ (Homo sapiens)", "value unit": "%", "inhibition at 1 µM": 100}

Returns the measured inhibition at 1 µM for the input molecule. Input: `CCC/C=C/c1ccc2c(C(N)=O)c(NC(N)=O)[nH]c2c1` 94

Please answer likewise for `NC(=O)Nc1[nH]c2cc(-c3ccc[nH]3)ccc2c1C(N)=O` 95

Next up: `NC(=O)Nc1[nH]c2cc(-c3ccc4[nH]ccc4c3)ccc2c1C(N)=O` 100

`CN(C)CCCc1ccc2c(C(N)=O)c(NC(N)=O)[nH]c2c1` , same question. 95

###

// values below are reported inhibition at 1 µM
Biological target: IKKβ (Homo sapiens)
Construct: purchased Upstate Biotechnology Inc. 14-485
Assay: IKKβ inhibition assay by fluorescence polarization (IMAP kit)
Type: biochemical
Conditions: test compound at 1 μM; inhibition rate exceeding 100% is indicated as 100%
Record the result as a number with its unit.

Answered cases to consult:
{"compound": "COc1cccc(-c2ccc3c(C(N)=O)c(NC(N)=O)[nH]c3c2)c1", "inhibition at 1 µM": "98%"}
{"compound": "NC(=O)Nc1[nH]c2cc(-c3cccc(CCO)c3)ccc2c1C(N)=O", "inhibition at 1 µM": "97%"}
{"compound": "Cc1c(-c2ccoc2)ccc2c(C(N)=O)c(NC(N)=O)[nH]c12", "inhibition at 1 µM": "96%"}
{"compound": "COC/C=C/c1ccc2c(C(N)=O)c(NC(N)=O)[nH]c2c1", "inhibition at 1 µM": "99%"}
{"compound": "NC(=O)Nc1[nH]c2cc(-c3ccc(CO)o3)ccc2c1C(N)=O", "inhibition at 1 µM": "99%"}
{"compound": "NC(=O)Nc1[nH]c2cc(-c3cnc4ccccc4c3)ccc2c1C(N)=O", "inhibition at 1 µM": "99%"}
{"compound": "NC(=O)Nc1[nH]c2cc(-c3ccccc3F)ccc2c1C(N)=O", "inhibition at 1 µM": "100%"}
{"compound": "NC(=O)Nc1[nH]c2cc(-c3cccc(F)c3)ccc2c1C(N)=O", "inhibition at 1 µM": "100%"}
{"compound": "CC(C)(N)c1ccc(-c2ccc3c(C(N)=O)c(NC(N)=O)[nH]c3c2)cc1", "inhibition at 1 µM": "99%"}
{"compound": "NC(=O)Nc1[nH]c2cc(N3CCCC3)ccc2c1C(N)=O", "inhibition at 1 µM": "86%"}

Which inhibition at 1 µM value belongs to `CS(=O)(=O)Nc1cccc(-c2ccc3c(C(N)=O)c(NC(N)=O)[nH]c3c2)c1` ? 100%

What about this compound? `NC(=O)Nc1[nH]c2cc(C3CCCCC3)ccc2c1C(N)=O` 100%

Would you mind doing `Cc1ccc2[nH]c(NC(N)=O)c(C(N)=O)c2c1` as well? 55%

Lookup `COC(=O)c1ccc2c(C(N)=O)c(NC(N)=O)[nH]c2c1` 100%

Another compound to look at: `NC(=O)Nc1[nH]c2cc(-c3ccncc3)ccc2c1C(N)=O` 98%

Consider next the compound `NC(=O)Nc1[nH]c2cc(-c3ccoc3)ccc2c1C(N)=O` in the same way. 100%

Then `COc1cc(-c2ccc3c(C(N)=O)c(NC(N)=O)[nH]c3c2)ccc1CO` ? 100%

###

Target: IKKβ (Homo sapiens)
Construct: purchased Upstate Biotechnology Inc. 14-485
Sequence (O14920 1-756): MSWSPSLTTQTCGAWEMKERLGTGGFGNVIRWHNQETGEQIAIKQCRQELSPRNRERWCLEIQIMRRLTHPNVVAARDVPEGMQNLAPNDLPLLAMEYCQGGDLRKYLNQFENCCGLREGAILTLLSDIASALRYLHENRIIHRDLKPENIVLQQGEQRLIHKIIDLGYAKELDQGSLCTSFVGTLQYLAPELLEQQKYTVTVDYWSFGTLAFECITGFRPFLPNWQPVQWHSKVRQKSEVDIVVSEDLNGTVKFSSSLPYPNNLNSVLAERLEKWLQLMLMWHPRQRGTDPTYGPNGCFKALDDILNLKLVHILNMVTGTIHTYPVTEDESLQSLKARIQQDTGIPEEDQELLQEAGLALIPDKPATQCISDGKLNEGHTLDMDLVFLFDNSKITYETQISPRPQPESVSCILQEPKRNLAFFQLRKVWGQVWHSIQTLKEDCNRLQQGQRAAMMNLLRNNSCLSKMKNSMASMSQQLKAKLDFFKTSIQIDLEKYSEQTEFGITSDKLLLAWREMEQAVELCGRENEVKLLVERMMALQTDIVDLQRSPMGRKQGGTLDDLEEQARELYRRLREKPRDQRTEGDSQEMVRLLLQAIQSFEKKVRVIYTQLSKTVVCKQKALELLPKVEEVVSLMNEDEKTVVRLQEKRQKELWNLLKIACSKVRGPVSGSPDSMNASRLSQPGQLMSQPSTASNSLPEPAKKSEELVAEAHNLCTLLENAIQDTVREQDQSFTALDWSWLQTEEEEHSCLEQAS
Test: IKKβ inhibition assay by fluorescence polarization (IMAP kit)
Format: biochemical
Conditions: test compound at 1 μM; inhibition rate exceeding 100% is indicated as 100%
This listing pairs compounds with measured inhibition at 1 µM.

{"smiles": "NC(=O)Nc1[nH]c2cc(-c3ccccc3)ccc2c1C(N)=O", "inhibition at 1 µM": "100%"}
{"smiles": "NC(=O)Nc1[nH]c2cc(-c3cccc(CNCCO)c3)ccc2c1C(N)=O", "inhibition at 1 µM": "100%"}
{"smiles": "Cc1c(Br)ccc2c(C(N)=O)c(NC(N)=O)[nH]c12", "inhibition at 1 µM": "96%"}
{"smiles": "CC(=O)Nc1ccc2c(C(N)=O)c(NC(N)=O)[nH]c2c1", "inhibition at 1 µM": "80%"}
{"smiles": "NC(=O)Nc1[nH]c2cc(-c3ccc(CNC4CC4)o3)ccc2c1C(N)=O", "inhibition at 1 µM": "100%"}

What does the data say about its inhibition at 1 µM? Entry: `NC(=O)Nc1[nH]c2cc(-c3ccsc3Cl)ccc2c1C(N)=O` 100%

What do you have for `NC(=O)Nc1[nH]c2cc(-c3cccc(CO)c3)ccc2c1C(N)=O` ? 100%

Also, `NC(=O)Nc1c(C(N)=O)c2ccc(Br)cc2n1O` please. 86%

Try this compound too: `NC(=O)Nc1[nH]c2cc(-c3ccco3)ccc2c1C(N)=O` 100%

Then `NC(=O)Nc1[nH]c2cc(CO)ccc2c1C(N)=O` ? 78%

Then `COCCCc1ccc2c(C(N)=O)c(NC(N)=O)[nH]c2c1` ? 94%

What about this compound? `NC(=O)Nc1[nH]c2cc(CCCCO)ccc2c1C(N)=O` 98%

Thanks! And `NCc1ccc(-c2ccc3c(C(N)=O)c(NC(N)=O)[nH]c3c2)cc1` ? 100%

###

Listing: inhibition at 1 µM of selected molecules
Target: IKKβ (Homo sapiens)
Construct: purchased Upstate Biotechnology Inc. 14-485
Sequence (O14920 1-756): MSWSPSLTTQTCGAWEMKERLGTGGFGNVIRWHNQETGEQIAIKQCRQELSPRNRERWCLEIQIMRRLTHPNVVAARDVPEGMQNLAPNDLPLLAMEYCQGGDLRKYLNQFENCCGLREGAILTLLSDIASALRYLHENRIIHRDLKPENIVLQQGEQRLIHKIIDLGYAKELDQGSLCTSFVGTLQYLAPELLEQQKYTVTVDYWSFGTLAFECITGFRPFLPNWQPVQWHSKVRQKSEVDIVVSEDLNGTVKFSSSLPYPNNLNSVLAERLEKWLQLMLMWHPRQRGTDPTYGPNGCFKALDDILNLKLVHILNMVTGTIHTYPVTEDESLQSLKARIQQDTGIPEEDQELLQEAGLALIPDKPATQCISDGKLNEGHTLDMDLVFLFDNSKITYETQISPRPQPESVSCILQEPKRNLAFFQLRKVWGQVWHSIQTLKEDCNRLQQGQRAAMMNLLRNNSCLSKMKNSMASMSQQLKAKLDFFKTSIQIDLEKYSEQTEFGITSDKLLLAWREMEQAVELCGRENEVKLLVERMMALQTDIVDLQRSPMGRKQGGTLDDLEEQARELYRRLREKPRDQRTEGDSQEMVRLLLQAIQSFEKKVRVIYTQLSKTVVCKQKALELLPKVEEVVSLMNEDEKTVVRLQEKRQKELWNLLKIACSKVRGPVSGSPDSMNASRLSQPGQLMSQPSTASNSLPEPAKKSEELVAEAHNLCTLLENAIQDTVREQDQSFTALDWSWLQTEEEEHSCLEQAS
Test: IKKβ inhibition assay by fluorescence polarization (IMAP kit)
Type: biochemical
Conditions: test compound at 1 μM; inhibition rate exceeding 100% is indicated as 100%
Please state the figure in %; there is no need to write the unit.

These recorded examples may help you get a feel for the data.
{"smiles": "NC(=O)Nc1[nH]c2cc(C(=O)NCc3ccccc3)ccc2c1C(N)=O", "value unit": "%", "inhibition at 1 µM": 100}
{"smiles": "CN(C)c1ccc(-c2ccc3c(C(N)=O)c(NC(N)=O)[nH]c3c2)cc1", "value unit": "%", "inhibition at 1 µM": 95}
{"smiles": "NC(=O)Nc1[nH]c2cc(-c3cccc([N+](=O)[O-])c3)ccc2c1C(N)=O", "value unit": "%", "inhibition at 1 µM": 100}

Moving on to the next molecule.
# inhibition at 1 µM lookup, item `NC(=O)Nc1[nH]c2cc(-c3ccsc3)ccc2c1C(N)=O` 98
